# Assay Target: SARS-CoV-2 spike RBD (WT) (Severe acute respiratory syndrome …, UniProt P0DTC2)
# Measurement Notes: BLI
Mark Y only when Kd stays strictly below 600 nM. Values equal to the cut-off are N.

{"Binder": "D009 (antibody, V domains shown) VH: EVQLLESGGGLVQPGGSLRLSCAATGFTFGSYTMTWVRQAPGKGLEWVSSISVSGRRTYYAGSVQGRFTVSRDNSMNALFLQMNSLRADDTAVYYCARDAPREAYYDRTGHYIFYYGMDLWGQGTTVTVSS VL: EIVMTQSPATLSVSPGERATLSCRASQSVSDNLAWYQQKPGQAPRLLIYGASTRAIGIPDRFTGSGSGTEFTLTISSLQSEDFAVYYCQHYNNGPSVGFGQGTRVEFK", "Qualitative Label": "N"}
{"Binder": "D124 (antibody, V domains shown) VH: QVQLQQWGAGLLKPSETLSLTCAVYGGPFTGYSWTWIRQSPGKGLEWIGEINHSGSTSYNPSLQSRVTFSIDTSKNQFSLELSSVTAADTAVYFCARGNRNRYHTSDWYYYGMDVWGQGTTVTVSS VL: DIQMTQSPSSLSAYVGDRVTITCRASQGINTYLAWYQQKPGKVPRLLIYGASTLQSGVPSRFSGSGSGTEFTLTISSLQPEDIATYYCQKYNSAPRTFGQGTKVEIK", "Qualitative Label": "Y"}
{"Binder": "C2690 (antibody, V domains shown) VH: EVQLVESGGGVVQPGRSLRVSCAASGFTFSSYGMHWVRQAPGKGLEWVAVISYDGSNKYYADSVKGRFSISRDNSKNTLYLQMNSLRAEDTAVYYCAKVISSFGGGSLNYFDYWGQGTLVTVSS VL: AIRMTQSPSSLSASVGDRVTITCQASQDISNYLNWYQQKPGKAPKLLIYDASNLETGVPSRFSGSGSGTDFTFTISSLQPEDIATYYCQQYDNLPITFGQGTRLEIK", "Qualitative Label": "Y"}

[in] Please let me know if D005 (antibody, V domains shown) VH: QVQLVQSGAEVKKPGASVKVSCKASGYTFTNYYIHWVRQAPGQGLEWMGIINPSAGSTTYAQKFQGRVTMTSDTSTSTVYMELSSLRSEDTAVYYCARAGELIPAARASFQHWGQGTLVTVSS VL: DIQMTQSPSTLSASVGDRVTITCRASQSISTWLAWYQQKPGKAPKILIYKASSLESGVPSRFSGSGSGTEFTLTLSSLQPDDFATYYCQQYNSYSPTFGQGTKVEIK shows Kd below 600 nM.
[out] Y
